These data points were gathered from patent US9556201B2.

ASSAY_SYSTEM: SIRT1 (Homo sapiens, UniProt Q96EB6)
Sequence (Q96EB6 whole entry): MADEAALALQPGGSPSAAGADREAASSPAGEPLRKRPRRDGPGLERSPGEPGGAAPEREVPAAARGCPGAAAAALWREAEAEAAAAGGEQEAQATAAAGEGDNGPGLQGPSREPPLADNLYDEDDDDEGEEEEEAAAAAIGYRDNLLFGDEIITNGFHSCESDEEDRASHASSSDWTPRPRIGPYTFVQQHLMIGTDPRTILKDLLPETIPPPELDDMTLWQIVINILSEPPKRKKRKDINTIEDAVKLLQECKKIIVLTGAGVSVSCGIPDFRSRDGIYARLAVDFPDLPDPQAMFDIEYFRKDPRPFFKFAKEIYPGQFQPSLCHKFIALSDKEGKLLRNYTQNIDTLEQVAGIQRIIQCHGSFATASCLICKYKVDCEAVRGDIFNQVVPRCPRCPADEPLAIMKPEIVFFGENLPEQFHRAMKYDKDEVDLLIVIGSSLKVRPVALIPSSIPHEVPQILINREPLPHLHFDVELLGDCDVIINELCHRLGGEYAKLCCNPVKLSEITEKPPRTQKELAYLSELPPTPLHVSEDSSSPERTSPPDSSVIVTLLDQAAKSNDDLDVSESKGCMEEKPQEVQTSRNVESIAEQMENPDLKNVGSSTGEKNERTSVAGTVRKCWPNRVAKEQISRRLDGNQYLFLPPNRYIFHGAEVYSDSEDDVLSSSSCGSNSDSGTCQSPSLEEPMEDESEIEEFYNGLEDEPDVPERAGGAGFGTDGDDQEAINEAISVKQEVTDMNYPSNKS
ASSAY_PROCEDURE: Mass spectrometry based assay to identify modulators of SIRT1 activity (deacetylation of p53-based acetylated peptide substrate)
Assay type: biochemical
COND: 25 min, SIRT1 activation, read-out: % FOLD ACT. (percent maximum fold activation)
READOUT_TYPE: Emax

These recorded examples may help you get a feel for the data.
COMPOUND	Emax
CCN1C(=O)CCN(C(=O)Nc2ccccn2)c2nc(-c3cccc(Cl)c3)ccc21 [Compound 765]	≤ 200%
Cc1cc(NC(=O)N2CCN(C)c3ccc(-c4cccc(C(F)(F)F)c4)nc32)cc(C)n1 [Compound 532]	≤ 200%
O=C(Nc1ccnc(N2CCC2)c1)N1CCCc2ccc(-c3cccc(C(F)(F)F)c3)nc21 [Compound 589]	> 200%
Cc1cc(OCC(O)CO)nc(NC(=O)N2CCC(F)(F)c3ccc(-c4cccc(C(F)(F)F)c4)nc32)n1 (centres unmarked) [Compound 824]	≤ 200%
Cc1cncc(NC(=O)N2CCCOc3ccc(-c4ccc(C)nc4)nc32)c1 [Compound 636]	≤ 200%

What Emax value was documented for this compound, O=C(Nc1ccncc1F)N1CCCCc2ccc(-c3cccc(C(F)(F)F)c3)nc21 [Compound 817] ?
> 200%

Please do the same for CCN1CCCN(C(=O)Nc2cccc(OC[C@@H](O)CO)n2)c2nc(-c3cccc(Cl)c3)ccc21 [Compound 796] as well.
> 200%

Please do the same for CCN1C(=O)CCN(C(=O)Nc2cccc(OC[C@@H](O)CO)n2)c2nc(-c3cccc(Cl)c3)ccc21 [Compound 788] as well.
≤ 200%

Please do the same for CC1(C)CN(C(=O)Nc2cncc(F)c2)c2nc(-c3cccc(N4CCCC4)c3)ccc2O1 [Compound 604] as well.
> 200%

Please do the same for O=C(Nc1ccncc1F)N1CCCC(F)(F)c2ccc(-c3cccc(Cl)c3)nc21 [Compound 782] as well.
≤ 200%

Please do the same for O=C(Nc1ccncn1)N1CCCCc2ccc(-c3cccc(C(F)(F)F)c3)nc21 [Compound 815] as well.
> 200%

Please do the same for CCN1CCCN(C(=O)Nc2nc(C)cs2)c2nc(-c3cccc(Cl)c3)ccc21 [Compound 794] as well.
> 200%

Please do the same for O=C(Nc1cncnc1)N1CCCOc2ccc(-c3cccc(Cl)c3)nc21 [Compound 852] as well.
> 200%

Please do the same for O=C(Nc1ccnc(OCC(O)CO)n1)N1CCCOc2ccc(-c3cccc(Cl)c3)nc21 (centres unmarked) [Compound 876] as well.
> 200%

====

Emax listing for selected compounds.
ASSAY_SYSTEM: SIRT1 (Homo sapiens)
ASSAY_PROCEDURE: Mass spectrometry based assay to identify modulators of SIRT1 activity (deacetylation of p53-based acetylated peptide substrate)
Type: biochemical
COND: 25 min, SIRT1 activation, read-out: % FOLD ACT. (percent maximum fold activation)

COMPOUND	Emax
Cn1ccc(NC(=O)N2CCCOc3ccc(-c4cccc(Cl)c4)nc32)n1 [Compound 705]	> 200%
Cc1cnccc1NC(=O)N1CCOc2ccc(-c3cccc(C(F)(F)F)c3)nc21 [Compound 564]	≤ 200%

What Emax value was documented for this compound, Cc1cc(C)c(NC(=O)N2CCOc3ccc(-c4cccc(C(F)(F)F)c4)nc32)cn1 [Compound 553] ?
≤ 200%

Please do the same for Cc1csc(NC(=O)N2CC(C)(C)Oc3ccc(-c4cccc(N(C)C)c4)nc32)n1 [Compound 624] as well.
> 200%

Please do the same for CC1(C)CCN(C(=O)Nc2ccncc2F)c2nc(-c3cccc(Cl)c3)ccc2C1=O [Compound 836] as well.
≤ 200%

Please do the same for Cc1cc(NC(=O)N2CCCc3ccc(-c4cccc(F)c4)nc32)cc(C)n1 [Compound 595] as well.
> 200%
